assay.readout: logP

Some compounds with known logP results, for comparison:
1. CNC(=O)c1cc2ccccc2[nH]1; 1.9
2. CCCNC(=O)c1ccccc1; 1.72

a: CCCOC(=O)c1ccoc1
b: CCCNC(=O)c1ccc[nH]1
c: CNC(=O)c1ccc[nH]1
d: NC(=O)c1ccc[nH]1
Q. Descending sort on logP required. List each label, following the requested order.
A. a, b, c, d

====

assay.procedure: method code SF-AS, from DOI: 10.1016/0021-9673(94)85294-4
assay.readout: logP

I: CCCNC(=O)c1cc2ccccc2[nH]1
II: NC(=O)c1cc2ccccc2o1
III: Cn1cccc1C(N)=O
IV: CCNC(=O)c1ccc[nH]1
Q. List the 4 molecules shown above, ordered by increasing logP. Present the labels in the sequence the task asks for.
A. III, IV, II, I
(III: 0.45, IV: 0.8, II: 1.54, I: 2.8)

1: CCCNC(=O)c1cc2ccccc2o1
2: CCNC(=O)c1c[nH]c2ccccc12
Q. // which entry has the larger logP value, 1 or 2 ? State your choice using its label.
A. 1

====

assay.procedure: method code SF-AS, from DOI: 10.1016/0021-9673(94)85294-4
assay.readout: logP

Illustrative cases are given below, each with its answer.
1. CNC(=O)c1cccn1C; 0.71
2. CCOC(=O)c1cc2ccccc2o1; 3.05
3. CCCNC(=O)c1cccn1C; 1.63
4. CCCNC(=O)c1ccco1; 1.1
5. CCNC(=O)c1cc2ccccc2o1; 2.22
6. CNC(=O)c1c[nH]c2ccccc12; 1.25

1: NC(=O)c1cc2ccccc2[nH]1
2: CCNC(=O)c1cc2ccccc2[nH]1
3: CCNC(=O)c1cccn1C
Q. Arrange these molecules by their logP, starting with the largest number. Note for the reader: the ranking is given by listing the labels in the order requested.
A. 2, 1, 3

1: CCCNC(=O)c1ccoc1
2: COC(=O)c1cccn1C
3: COC(=O)c1cc2ccccc2[nH]1
Q. Arrange the 3 molecules from largest to smallest logP. Answer with the labels in sequence, matching the requested order.
A. 3, 2, 1
(3: 2.78, 2: 1.8, 1: 1.2)

====

assay.procedure: method code SF-AS, from DOI: 10.1016/0021-9673(94)85294-4
assay.readout: logP

1) CCOC(=O)c1ccc[nH]1; 1.73

A: CNC(=O)c1cc2ccccc2o1
B: CCNC(=O)c1ccccc1
Q. // which entry has the larger logP value, A or B ? Return value: the label identifying the chosen record.
A. A
(A: 1.85, B: 1.28)
